System: mouse TMEM16A mutant G558P (Mus musculus, UniProt Q8BHY3, G558P)
Construct: expressed in transfected cells; host or cells: HEK293T
Test protocol: Inside-out patch recording of 1PBC block, mutant G558P
Format: cell-based
Measurement setup: -20 mV; 15 µM Ca2+
Assay readout: IC50

molecule="N#Cc1c(C(F)(F)F)cc(O)n2c1nc1ccccc12 [1PBC]" system="mouse TMEM16A mutant G558P (Mus musculus, UniProt Q8BHY3, G558P)" assay_readout=IC50 result="7.94 µM"

---

System: mouse TMEM16A mutant V599A (Mus musculus, UniProt Q8BHY3, V599A)
Construct: expressed in transfected cells; host or cells: HEK293T
Test protocol: Inside-out patch recording of 1PBC block, mutant V599A
Assay type: cell-based
Measurement setup: V599A; V 20 mV
Assay readout: IC50

compound="N#Cc1c(C(F)(F)F)cc(O)n2c1nc1ccccc12 [1PBC]" result="61.3 µM"

---

System: mouse TMEM16A mutant I516A (Mus musculus, UniProt Q8BHY3, I516A)
Construct: expressed in transfected cells; host or cells: HEK293T
Sequence (Q8BHY3 1-960 I516A): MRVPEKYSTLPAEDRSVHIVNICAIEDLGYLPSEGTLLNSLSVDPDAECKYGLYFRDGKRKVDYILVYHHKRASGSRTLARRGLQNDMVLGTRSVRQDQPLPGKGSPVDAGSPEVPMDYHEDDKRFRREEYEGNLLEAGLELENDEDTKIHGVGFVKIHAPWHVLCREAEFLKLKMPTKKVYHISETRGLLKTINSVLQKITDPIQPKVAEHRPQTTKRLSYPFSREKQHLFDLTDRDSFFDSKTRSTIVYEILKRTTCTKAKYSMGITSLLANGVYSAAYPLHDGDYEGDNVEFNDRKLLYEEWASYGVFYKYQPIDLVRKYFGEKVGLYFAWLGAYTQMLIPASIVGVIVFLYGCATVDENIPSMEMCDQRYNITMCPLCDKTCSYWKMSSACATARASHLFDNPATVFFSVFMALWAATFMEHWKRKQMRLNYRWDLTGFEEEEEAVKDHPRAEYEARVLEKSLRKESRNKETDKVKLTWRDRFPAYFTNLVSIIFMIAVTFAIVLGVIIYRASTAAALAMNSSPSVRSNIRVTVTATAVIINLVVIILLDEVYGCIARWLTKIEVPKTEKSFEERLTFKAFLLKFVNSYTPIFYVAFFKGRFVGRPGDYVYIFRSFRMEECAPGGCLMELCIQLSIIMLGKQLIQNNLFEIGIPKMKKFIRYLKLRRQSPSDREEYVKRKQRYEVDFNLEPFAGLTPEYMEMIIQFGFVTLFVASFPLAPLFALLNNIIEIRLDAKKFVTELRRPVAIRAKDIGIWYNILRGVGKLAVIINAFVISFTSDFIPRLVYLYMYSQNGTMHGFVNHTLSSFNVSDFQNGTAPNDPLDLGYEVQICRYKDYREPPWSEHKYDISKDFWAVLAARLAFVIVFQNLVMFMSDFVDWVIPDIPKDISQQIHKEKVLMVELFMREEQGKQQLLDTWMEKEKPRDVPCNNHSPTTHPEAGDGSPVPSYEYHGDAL
Test protocol: Inside-out patch recording of 1PBC block, mutant I516A
Type: cell-based
Measurement setup: I516A; V -40 mV
pIC50: −log10 of the molar value.
Assay readout: pIC50

cpd_smiles=N#Cc1c(C(F)(F)F)cc(O)n2c1nc1ccccc12 assay_readout=pIC50 numeric_result=5.10

---

System: mouse TMEM16A mutant Y514A (Mus musculus, UniProt Q8BHY3, Y514A)
Construct: expressed in transfected cells; host or cells: HEK293T
Test protocol: Inside-out patch recording of 1PBC block, mutant Y514A
Format: cell-based
Measurement setup: Y514A; V -60 mV
Assay readout: IC50

cpd_smiles=N#Cc1c(C(F)(F)F)cc(O)n2c1nc1ccccc12 result="40.6 µM"

---

System: mouse TMEM16A mutant T518A (Mus musculus, UniProt Q8BHY3, T518A)
Construct: expressed in transfected cells; host or cells: HEK293T
Test protocol: Inside-out patch recording of 1PBC block, mutant T518A
Assay type: cell-based
Measurement setup: T518A; V -20 mV
pIC50: −log10 of the molar value.
Assay readout: pIC50

compound="N#Cc1c(C(F)(F)F)cc(O)n2c1nc1ccccc12 [1PBC]" numeric_result=5.14

---

System: mouse TMEM16A mutant V511A (Mus musculus, UniProt Q8BHY3, V511A)
Construct: expressed in transfected cells; host or cells: HEK293T
Test protocol: Inside-out patch recording of 1PBC block, mutant V511A
Format: cell-based
Measurement setup: V511A; V 120 mV
Procedure: HEK293T cells (ATCC CRL-1573) were maintained in Dulbecco’s modified Eagle’s medium (DMEM; Sigma-Aldrich) supplemented with 10 U ml^−1 penicillin, 0.1 mg ml^−1 streptomycin (Sigma-Aldrich), 2 mM L-glutamine (Sigma-Aldrich), and 10% FBS (Sigma-Aldrich) in a humidified atmosphere containing 5% CO2 at 37 °C. […]
Assay readout: IC50

cpd_smiles=N#Cc1c(C(F)(F)F)cc(O)n2c1nc1ccccc12 assay_readout=IC50 result="7.49 µM"

---

System: mouse TMEM16A mutant S517A (Mus musculus, UniProt Q8BHY3, S517A)
Construct: expressed in transfected cells; host or cells: HEK293T
Test protocol: Inside-out patch recording of 1PBC block, mutant S517A
Format: cell-based
Measurement setup: -80 mV; 2 µM Ca2+
Assay readout: IC50 (µM)

cpd_smiles=N#Cc1c(C(F)(F)F)cc(O)n2c1nc1ccccc12 assay_readout=IC50 unit_info=µM numeric_result=12.8

---

System: mouse TMEM16A mutant R515A (Mus musculus, UniProt Q8BHY3, R515A)
Construct: expressed in transfected cells; host or cells: HEK293T
Test protocol: Inside-out patch recording of 1PBC block, mutant R515A
Format: cell-based
Measurement setup: 120 mV; 4 µM Ca2+
pIC50: −log10 of the molar value.
Assay readout: pIC50

cpd_smiles=N#Cc1c(C(F)(F)F)cc(O)n2c1nc1ccccc12 assay_readout=pIC50 numeric_result=4.07

---

System: mouse TMEM16A mutant V511A (Mus musculus, UniProt Q8BHY3, V511A)
Construct: expressed in transfected cells; host or cells: HEK293T
Sequence (Q8BHY3 1-960 V511A): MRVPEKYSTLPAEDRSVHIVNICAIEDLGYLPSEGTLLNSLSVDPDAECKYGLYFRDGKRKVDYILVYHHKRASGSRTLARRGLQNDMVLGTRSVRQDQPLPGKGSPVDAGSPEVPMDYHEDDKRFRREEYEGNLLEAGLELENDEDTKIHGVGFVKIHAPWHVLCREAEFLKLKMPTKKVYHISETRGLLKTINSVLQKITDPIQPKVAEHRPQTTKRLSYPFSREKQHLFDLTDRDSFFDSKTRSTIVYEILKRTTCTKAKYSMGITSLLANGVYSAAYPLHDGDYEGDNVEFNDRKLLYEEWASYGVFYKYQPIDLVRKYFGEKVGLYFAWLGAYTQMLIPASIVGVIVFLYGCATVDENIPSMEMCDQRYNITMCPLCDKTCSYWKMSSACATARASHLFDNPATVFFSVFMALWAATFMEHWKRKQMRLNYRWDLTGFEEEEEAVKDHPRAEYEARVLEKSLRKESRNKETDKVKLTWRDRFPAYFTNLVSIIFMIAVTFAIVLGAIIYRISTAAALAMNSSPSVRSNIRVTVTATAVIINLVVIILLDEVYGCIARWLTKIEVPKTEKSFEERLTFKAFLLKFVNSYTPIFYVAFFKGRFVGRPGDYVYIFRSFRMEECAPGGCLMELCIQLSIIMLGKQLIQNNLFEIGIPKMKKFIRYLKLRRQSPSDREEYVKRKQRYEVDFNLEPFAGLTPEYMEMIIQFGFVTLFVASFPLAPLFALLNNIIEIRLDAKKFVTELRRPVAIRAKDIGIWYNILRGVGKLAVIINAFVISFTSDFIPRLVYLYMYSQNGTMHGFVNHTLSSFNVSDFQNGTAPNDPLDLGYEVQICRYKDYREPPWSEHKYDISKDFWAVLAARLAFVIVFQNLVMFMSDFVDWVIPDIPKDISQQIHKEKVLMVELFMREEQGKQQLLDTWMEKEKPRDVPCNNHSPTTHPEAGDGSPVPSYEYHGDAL
Test protocol: Inside-out patch recording of 1PBC block, mutant V511A
Type: cell-based
Measurement setup: 60 mV; 2 µM Ca2+
pIC50: −log10 of the molar value.
Assay readout: pIC50

cpd_smiles=N#Cc1c(C(F)(F)F)cc(O)n2c1nc1ccccc12 numeric_result=4.98

---

System: mouse TMEM16A mutant G558P (Mus musculus, UniProt Q8BHY3, G558P)
Construct: expressed in transfected cells; host or cells: HEK293T
Sequence (Q8BHY3 1-960 G558P): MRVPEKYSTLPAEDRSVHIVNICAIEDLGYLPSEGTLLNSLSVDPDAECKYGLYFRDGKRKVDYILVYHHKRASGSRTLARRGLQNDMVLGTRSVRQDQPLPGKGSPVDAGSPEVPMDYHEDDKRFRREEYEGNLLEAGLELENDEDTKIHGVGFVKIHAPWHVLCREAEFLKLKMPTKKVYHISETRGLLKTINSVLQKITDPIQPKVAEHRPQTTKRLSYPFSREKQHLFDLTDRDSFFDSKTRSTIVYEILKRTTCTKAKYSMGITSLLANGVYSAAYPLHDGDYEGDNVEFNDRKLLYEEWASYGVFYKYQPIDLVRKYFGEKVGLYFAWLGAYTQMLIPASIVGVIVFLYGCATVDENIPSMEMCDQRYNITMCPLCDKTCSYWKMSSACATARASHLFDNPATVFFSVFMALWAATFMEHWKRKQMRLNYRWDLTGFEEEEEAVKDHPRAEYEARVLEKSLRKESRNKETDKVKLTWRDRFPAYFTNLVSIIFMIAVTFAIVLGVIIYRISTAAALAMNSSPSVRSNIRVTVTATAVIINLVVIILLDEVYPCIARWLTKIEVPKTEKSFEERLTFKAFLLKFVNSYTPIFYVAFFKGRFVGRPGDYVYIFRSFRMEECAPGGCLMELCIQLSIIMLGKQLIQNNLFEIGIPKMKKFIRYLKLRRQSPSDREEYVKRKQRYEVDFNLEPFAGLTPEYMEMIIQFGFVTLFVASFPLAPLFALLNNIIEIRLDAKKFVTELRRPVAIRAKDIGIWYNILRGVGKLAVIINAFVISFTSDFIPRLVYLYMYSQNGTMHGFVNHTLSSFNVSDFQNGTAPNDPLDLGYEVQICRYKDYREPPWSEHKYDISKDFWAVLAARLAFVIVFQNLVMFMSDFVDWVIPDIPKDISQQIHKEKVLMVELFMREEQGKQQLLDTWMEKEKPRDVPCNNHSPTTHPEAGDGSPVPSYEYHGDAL
Test protocol: Inside-out patch recording of 1PBC block, mutant G558P
Assay type: cell-based
Measurement setup: G558P; V -60 mV
pIC50: −log10 of the molar value.
Assay readout: pIC50

cpd_smiles=N#Cc1c(C(F)(F)F)cc(O)n2c1nc1ccccc12 numeric_result=4.87
